measuredQuantity: melting point (°C)

[[record]]
molecule = "O=C(O)[C@H]1CC[C@H](Nc2ncc3ncnc(Nc4ccc(F)c(Cl)c4)c3n2)CC1"
unitslabel = "°C"
resultmodifier = ">"
number = 290

[[record]]
molecule = "CC(=O)c1cccc(-c2ccc(Oc3ncccc3C(=O)O)cc2)c1"
unitslabel = "°C"
resultmodifier = "="
number = 188

[[record]]
molecule = "COC[C@H]1CN(c2ccc(OCCC3(C(F)(F)F)OCCO3)cc2)C(=O)O1"
unitslabel = "°C"
resultmodifier = "="
number = 112

[[record]]
molecule = "CC1(C)Oc2ccc(C(N)=O)cc2[C@H](NCCc2ccccc2)[C@H]1O (relative stereo)"
unitslabel = "°C"
resultmodifier = "="
number = 162

[[record]]
molecule = "CCCOc1ccc(S(=O)(=O)NCC2(NCC)CCCCCC2)cc1-c1nc2c([nH]1)c1nncn1c(=O)n2CCC"
unitslabel = "°C"
resultmodifier = "="
number = 203

[[record]]
molecule = "CC(C)c1ccc(C(=O)C2=C(O)C(=O)N(c3ncc(Sc4ccc([N+](=O)[O-])cc4)s3)C2c2ccc(OC(F)(F)F)cc2)cc1 (centres undefined)"
unitslabel = "°C"
resultmodifier = "="
number = 238

[[record]]
molecule = "CCOC(=O)COC1=C(C(=O)Nc2cc(Cl)cc(Cl)c2)SC2=NCCCN21"
unitslabel = "°C"
resultmodifier = "="
number = 165

[[record]]
molecule = "Cc1ccc2c(c1)[nH]c(=O)n2CCCN1CCC(C(=O)c2ccc(F)cc2)CC1"
unitslabel = "°C"
resultmodifier = "="
number = 149

[[record]]
molecule = "CCCc1nc(C)n2cnnc2c1Cc1ccc(-c2ccccc2C#N)cc1"
unitslabel = "°C"
resultmodifier = "="
number = 153


* * *

measuredQuantity: melting point

[[record]]
molecule = "O=c1[nH]c2ccccc2c(=O)n1CCCN1CCC(OC(c2ccccc2)c2ccccc2)CC1"
result = "173 to 175 °C"

[[record]]
molecule = "COC(=O)C(CC1CCCC1)c1ccc(S(C)(=O)=O)c(F)c1 (stereo unspecified)"
result = "66 to 68 °C"

[[record]]
molecule = "CCN1CCc2ccc(C(=O)CCC(=O)N3CCC(c4ccc(Cl)cc4)CC3)cc2C1"
result = "115 to 116 °C"

[[record]]
molecule = "CC(C)NCCCCCCOc1ccc(OCc2ccccc2)cc1"
result = "47 to 49 °C"

[[record]]
molecule = "CCCCCc1nc(C#N)c(C#N)nc1O"
result = "61 to 64 °C"

[[record]]
molecule = "CC(Cl)(Cl)C(NC(=O)c1cccc(Cl)c1)NC(=NC#N)Nc1cccnc1 (stereo unspecified)"
result = "142 to 143 °C"

[[record]]
molecule = "CC(C)(C)c1ccc(C[C@H]2NC(=O)O[C@H]2c2ccc(F)cc2)cc1 (racemic)"
result = "218 to 219 °C"

[[record]]
molecule = "O=C(O)CSc1cc(=Nc2ccccc2)ss1"
result = "147 °C"

[[record]]
molecule = "CC12CCC3c4ccc(C(=O)O)cc4CCC3C1CCC2C(=O)CCc1ccc(O)cc1 (stereo unspecified)"
result = "197 °C"

[[record]]
molecule = "CS(=O)c1c(C(=N)NN)nn(-c2c(Cl)cc(C(F)(F)F)cc2Cl)c1N (stereo unspecified)"
result = "210 °C"

[[record]]
molecule = "CCON=C(C)C1CCC(=O)CC1=O (stereo unspecified)"
result = "105 to 112 °C"

[[record]]
molecule = "CN(C)C(=O)CCc1ccc(NC(=O)Nc2ccc(Cl)c(C(F)(F)F)c2)c(-c2nnn[nH]2)c1"
result = "184 to 189 °C"

[[record]]
molecule = "CN(C)c1ccc(CC(OCC(O)CN2CCCCC2)C(=O)c2ccccc2)cc1 (stereo unspecified)"
result = "113 to 115 °C"

[[record]]
molecule = "CC(=O)Nc1ccc(F)cc1OCc1ccccc1"
result = "136 to 138 °C"

[[record]]
molecule = "O=[N+]([O-])c1ccc(N2C[C@@H]3C[C@H]2CS3)cc1F"
result = "97 to 98 °C"

[[record]]
molecule = "N#Cc1cccc(-c2ccc(=O)n(Cc3cccc(-c4ncc(Br)cn4)c3)n2)c1"
result = "178 to 179 °C"

[[record]]
molecule = "c1ccc(COc2nn3c(-c4cc(-c5cccs5)on4)nnc3c3ccccc23)nc1"
result = "213 to 215 °C"

[[record]]
molecule = "CCOc1cc2nc(NC)nc(-c3cccc(-c4cncc(SC)c4)c3)c2cc1OCC"
result = "105 to 107 °C"

[[record]]
molecule = "CC(C)(C)OC(=O)NCCCCC(=O)NCCC(=O)OCc1ccccc1"
result = "69 to 70 °C"

[[record]]
molecule = "O=P1(O)OCc2ccccc21"
result = "167 °C"

[[record]]
molecule = "O=C(NO)C(=O)c1ccc(OCCOc2ccc3ccccc3c2)s1"
result = "165 to 167 °C"


* * *

Readings of melting point for the listed molecules
measuredQuantity: melting point

[[record]]
molecule = "CCNC(=O)C(C)NS(=O)(=O)c1ccc(C)cc1 (racemic)"
result = "106 to 107 °C"

[[record]]
molecule = "Cc1cccc(-c2nc(N)sc2-c2ccnc(-c3ccc(OCCN4CCCC4)cc3)c2)n1"
result = "176 to 178 °C"

[[record]]
molecule = "CC(=O)c1ccc(CCNS(=O)(=O)c2ccc(C)cc2)cc1"
result = "124 to 126 °C"

[[record]]
molecule = "O=C(c1ccc(Cc2ccc(F)cc2)o1)c1occ(Br)c(=O)c1O"
result = "191 to 192 °C"

[[record]]
molecule = "N=c1ccccn1COc1ccccc1Br"
result = "62 to 64 °C"


* * *

Readings of melting point for the listed compounds
measuredQuantity: melting point

[[record]]
compound = "O=[N+]([O-])c1cnn2c(-c3cccs3)ccnc12"
measuredquantity = "melting point"
result = "235 to 237 °C"

[[record]]
compound = "O=c1c2ccccc2ncn1CCN1CC=C(c2c[nH]c3ccccc23)CC1"
measuredquantity = "melting point"
result = "132 °C"

[[record]]
compound = "CN(C)Cc1cccc(-c2cc(C(N)=O)ccc2C(N)=O)c1"
measuredquantity = "melting point"
result = "162 to 165 °C"

[[record]]
compound = "CCn1c(=O)c2c(ncn2CCCCC(O)CO)n(CC)c1=O (stereo not given)"
measuredquantity = "melting point"
result = "77 to 78 °C"

[[record]]
compound = "CC(C)N1C(=O)C(=O)NC1=NC(=NC(=O)OC(C)(C)C)Nc1ccc(Cl)c(Cl)c1"
measuredquantity = "melting point"
result = "226 °C"

[[record]]
compound = "CC(=O)CN1C(=O)C(NC(=O)Nc2cccc(-c3nnn[nH]3)c2)N=C(c2ccccc2F)c2cccc(C)c21 (stereo not given)"
measuredquantity = "melting point"
result = "174 to 190 °C"

[[record]]
compound = "O=C(c1ccccc1C(c1ccc(O)cc1)c1ccc(O)cc1)N(c1ccccc1)c1ccccc1"
measuredquantity = "melting point"
result = "262 to 263 °C"

[[record]]
compound = "COc1cccc(CN2CCN(C)CC2C2=NCCN2)c1 (stereo not given)"
measuredquantity = "melting point"
result = "78 to 80 °C"

[[record]]
compound = "CS(=O)(=O)c1ccc(Oc2cc(OCc3cccc(Cl)n3)c3[nH]c(C4=NCC(CCO)S4)cc3c2)cc1 (stereo not given)"
measuredquantity = "melting point"
result = "93 to 94 °C"

[[record]]
compound = "CC1(C)Oc2ccc(C=O)cc2C(N2CCCC2=O)C1O (stereo not given)"
measuredquantity = "melting point"
result = "196 to 198 °C"

[[record]]
compound = "CN(C)c1ccc2c(c1)N(CCCN1CCC(C(=O)O)CC1)c1ccccc1CC2"
measuredquantity = "melting point"
result = "198 to 202 °C"

[[record]]
compound = "O=c1[nH]c(=O)n2c3c1cnn3C(c1cccnc1)=CC2"
measuredquantity = "melting point"
result = "292 to 295 °C"

[[record]]
compound = "CS(=O)(=O)c1ccc(-n2nc(C(=O)O)cc2-c2ccc(-c3ccco3)cc2)cc1"
measuredquantity = "melting point"
result = "> 280 °C"

[[record]]
compound = "CSCC[C@H](NC(=O)c1ccc(/C=C(/Cn2ccnc2)c2ccc(F)cc2)cc1)C(=O)O"
measuredquantity = "melting point"
result = "106 °C"

[[record]]
compound = "CCOC(=O)c1ncn2c1[C@@H]1CCCN1C(=O)c1cc([N+](=O)[O-])ccc1-2"
measuredquantity = "melting point"
result = "191 to 193 °C"

[[record]]
compound = "CCCC(=O)Nc1c(C)c2c(c(Cc3ccc(C(C)C)cc3)c1C)OCC2"
measuredquantity = "melting point"
result = "168 to 169 °C"

[[record]]
compound = "O=S1(=O)c2cccc3c(Cl)cc(Cl)c(c23)N1CCCN1CC=C(c2ccccc2)CC1"
measuredquantity = "melting point"
result = "126 °C"

[[record]]
compound = "CCCN(Cc1cccc(-c2noc(C)n2)c1)C(=O)Nc1ccc(Br)cc1"
measuredquantity = "melting point"
result = "113 to 114 °C"

[[record]]
compound = "CC1=C(Cc2ccc(C(C)C)cc2)C(=O)C2C=CC=CC2C1=O (stereo not given)"
measuredquantity = "melting point"
result = "64 to 65 °C"

[[record]]
compound = "Cc1cc(NC(=O)Nc2cccc3c2C2CCCCN2C3=O)no1 (stereo not given)"
measuredquantity = "melting point"
result = "156 °C"

[[record]]
compound = "CCCCCCCCCCCCCCCCOc1ccc(S(N)(=O)=O)cc1N"
measuredquantity = "melting point"
result = "103 to 105 °C"

[[record]]
compound = "COc1ccc(N2CCN(c3c(C)c4c(c(OC)c3C)OC(C)C4)CC2)cc1F (stereo not given)"
measuredquantity = "melting point"
result = "120 to 122 °C"

[[record]]
compound = "O=[N+]([O-])c1c(Nc2ccon2)cnc2c1COCC2"
measuredquantity = "melting point"
result = "143 to 145 °C"

[[record]]
compound = "CC(=O)C(=O)N1C(C(=O)OCc2ccccc2)CC2CCCCC21 (stereo not given)"
measuredquantity = "melting point"
result = "50 to 55 °C"

[[record]]
compound = "C[C@@H]1C[C@@H](O)CC(C)(C)C1=O"
measuredquantity = "melting point"
result = "49 to 50 °C"

[[record]]
compound = "Cc1ccc2[nH]ncc2c1NCCN"
measuredquantity = "melting point"
result = "153 to 155 °C"

[[record]]
compound = "CCCN1C(=O)/C(=C/c2c[nH]c3ncccc23)N=C1C"
measuredquantity = "melting point"
result = "206 °C"

[[record]]
compound = "O=C(O)C=CC(=O)NNC(=O)N1Cc2ccccc2Oc2ccc(Cl)cc21"
measuredquantity = "melting point"
result = "171 to 172 °C"

[[record]]
compound = "COC(=O)c1cc2cc(C(=O)CN3CCN(c4ccncc4)CC3)ccc2o1"
measuredquantity = "melting point"
result = "173 to 177 °C"

[[record]]
compound = "CC(=O)SCCC(=O)N1C(C(=O)O)CC(=O)N1c1ccccc1 (stereo not given)"
measuredquantity = "melting point"
result = "144 to 146 °C"

[[record]]
compound = "CS(=O)(=O)c1ccc(-c2cnn(-c3ccsc3)c(=O)c2-c2ccc(F)cc2)cc1"
measuredquantity = "melting point"
result = "200 to 202 °C"

[[record]]
compound = "CC(C)=CCn1c(=S)sc2c(=O)[nH]c(N)nc21"
measuredquantity = "melting point"
result = "> 320 °C"

[[record]]
compound = "CS(=O)(=O)c1ccc(-n2nc(C(F)(F)F)cc2-c2ccc(Br)cc2)cc1F"
measuredquantity = "melting point"
result = "64 to 65 °C"

[[record]]
compound = "Brc1ccc(Br)c2nc(-c3ccccc3)c(-c3ccccc3)nc12"
measuredquantity = "melting point"
result = "221 to 223 °C"

[[record]]
compound = "O=C(Cc1ccccn1)c1nc2ccccc2[nH]1"
measuredquantity = "melting point"
result = "202 °C"

[[record]]
compound = "O=[N+]([O-])c1cccc2c1OCCO2"
measuredquantity = "melting point"
result = "55 to 59 °C"

[[record]]
compound = "CN1CCN(c2nn(S(=O)(=O)c3ccccc3)c3cc(Cl)ccc23)CC1"
measuredquantity = "melting point"
result = "139 to 141 °C"

[[record]]
compound = "CCc1n[nH]c2c(=O)[nH]c(-c3cc(S(C)(=O)=O)ccc3OCc3ccccn3)nc12"
measuredquantity = "melting point"
result = "283 to 286 °C"

[[record]]
compound = "CC(C)(C)c1cc(CCc2ccccc2NC(=O)NC2CCCCCC2)cc(C(C)(C)C)c1O"
measuredquantity = "melting point"
result = "177 to 178 °C"

[[record]]
compound = "O=C(O)c1ccccc1C(=O)N1CCN(c2cc3c(cc2F)c(=O)c(C(=O)O)c2sccn23)CC1"
measuredquantity = "melting point"
result = "277 to 278 °C"

